- measurementDescription: Oral bioavailability in NOD SCID mouse at 200 mg/kg
- Assay type: ADME, organism-based
- protocolConditions: in vivo
propertyMeasured: bioavailability (%)
Quick reminder: number only, in %, skip the unit.

Request: # bioavailability lookup, item `O=C(Nc1cc(Cl)cc(Cl)c1)Nc1nc2ccc([N+](=O)[O-])cc2s1`
Result: 22

---

- measurementDescription: Tmax in NOD SCID mouse at 100 mg/kg, po
- Assay type: ADME, organism-based
- protocolConditions: in vivo
propertyMeasured: Tmax (h)
Quick reminder: number only, in h, skip the unit.

Request: # Tmax lookup, item `O=C(Nc1cc(Cl)cc(Cl)c1)Nc1nc2ccc([N+](=O)[O-])cc2s1`
Result: 1.5

---

- measurementDescription: Oral bioavailability in NOD SCID mouse at 100 mg/kg
- Type: ADME, organism-based
- protocolConditions: in vivo
propertyMeasured: bioavailability (%)
Quick reminder: number only, in %, skip the unit.

Request: # bioavailability lookup, item `O=C(Nc1cc(Cl)cc(Cl)c1)Nc1nc2ccc([N+](=O)[O-])cc2s1`
Result: 33

---

- measurementDescription: Aqueous solubility of compound in SGF at pH 2
- Format: ADME
propertyMeasured: solubility (µM)
Quick reminder: number only, in µM, skip the unit.

Request: # solubility lookup, item `O=C(Nc1cc(Cl)cc(Cl)c1)Nc1nc2ccc([N+](=O)[O-])cc2s1`
Result: 3.4

---

- measurementDescription: Stability in human plasma assessed as compound remaining measured after 120 mins
- Format: ADME, cell-free
- protocolConditions: read-out: Stability
propertyMeasured: remaining at 2 h (%)
Quick reminder: number only, in %, skip the unit.

Request: # remaining at 2 h lookup, item `O=C(Nc1cc(Cl)cc(Cl)c1)Nc1nc2ccc([N+](=O)[O-])cc2s1`
Result: 85

---

- measurementDescription: Clearance in NOD SCID mouse at 1 mg/kg, iv
- Assay type: ADME, organism-based
- protocolConditions: in vivo
propertyMeasured: clearance (mL/min/kg)
Quick reminder: number only, in mL/min/kg, skip the unit.

Request: # clearance lookup, item `O=C(Nc1cc(Cl)cc(Cl)c1)Nc1nc2ccc([N+](=O)[O-])cc2s1`
Result: 39.3

---

- measurementDescription: Stability in mouse microsomes assessed as intrinsic clearance
- Assay type: ADME, Microsome
propertyMeasured: microsomal CLint

Request: # microsomal CLint lookup, item `O=C(Nc1cc(Cl)cc(Cl)c1)Nc1nc2ccc([N+](=O)[O-])cc2s1`
Result: < 116 µL/min/mg

---

- measurementDescription: Tmax in NOD SCID mouse at 50 mg/kg, po
- Format: ADME, organism-based
- protocolConditions: in vivo
propertyMeasured: Tmax (h)
Quick reminder: number only, in h, skip the unit.

Request: # Tmax lookup, item `O=C(Nc1cc(Cl)cc(Cl)c1)Nc1nc2ccc([N+](=O)[O-])cc2s1`
Result: 1.5

---

- Tested on: 786-0
- measurementDescription: Antiproliferative activity against human 786-0 cells incubated for 48 hrs by XTT assay
- Assay type: functional, cell-based
- protocolConditions: 786-0, 48 h
Threshold-based label: IC50 under 5 µM gives Condition met, IC50 not under 5 µM gives Condition not met.

In [3]: df
Out[3]:
                                   compound          classname
0  O=C(Nc1cc(Cl)cc(Cl)c1)Nc1nc2ccc([N+](=O)[O-])cc2s1      Condition met
1  O=C(Nc1cccc(Cl)c1)Nc1nc2ccc(-c3cccs3)cc2s1  Condition not met
2  O=C(Nc1cccc(Cl)c1)Nc1nc2cc([N+](=O)[O-])ccc2o1  Condition not met

Request: Does the reported IC50 of `O=C(Nc1nc2ccc([N+](=O)[O-])cc2s1)Nc1ccccc1Br` stay below 5 µM?
Result: Condition not met
